Known IC50 of a selection of molecules
# assayedSystem: BTK-WT (Homo sapiens, UniProt Q06187)
# Construct: purified from insect cells as a full-length construct containing an N-terminal 6X-His tag; His6 (N); made in house; host or cells: insect cells (baculovirus Sf21 in Method B)
# Sequence (Q06187 whole entry): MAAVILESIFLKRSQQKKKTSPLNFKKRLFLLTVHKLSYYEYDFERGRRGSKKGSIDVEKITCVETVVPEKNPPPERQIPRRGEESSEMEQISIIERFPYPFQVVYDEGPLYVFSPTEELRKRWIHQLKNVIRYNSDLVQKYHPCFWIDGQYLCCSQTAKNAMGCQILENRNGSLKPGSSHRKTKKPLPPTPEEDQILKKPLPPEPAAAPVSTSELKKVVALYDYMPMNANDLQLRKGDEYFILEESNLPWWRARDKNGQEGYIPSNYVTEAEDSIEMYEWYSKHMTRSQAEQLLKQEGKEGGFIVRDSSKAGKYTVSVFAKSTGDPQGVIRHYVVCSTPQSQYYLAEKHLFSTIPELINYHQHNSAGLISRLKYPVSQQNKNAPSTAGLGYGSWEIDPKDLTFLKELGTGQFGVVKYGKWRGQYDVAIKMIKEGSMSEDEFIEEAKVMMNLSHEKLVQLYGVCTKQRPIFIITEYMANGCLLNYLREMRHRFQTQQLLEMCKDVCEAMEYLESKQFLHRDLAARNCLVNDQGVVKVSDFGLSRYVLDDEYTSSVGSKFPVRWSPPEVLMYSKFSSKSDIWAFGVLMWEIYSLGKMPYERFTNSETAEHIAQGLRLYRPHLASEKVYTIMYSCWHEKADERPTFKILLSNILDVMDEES
# methodSummary: Btk in vitro inhibitory activity (one of Method A TR-FRET, Method B electrophoretic mobility shift, Method C radiometric filter binding)
# Format: biochemical
# testConditions: Table 10, Formula A-I; read-out: BTK-WT (IC50)

molecule: Cc1cc(Nc2nc(N3CCC(CNC(=O)N(C)C)CC3)cnc2C(N)=O)sn1
IC50: ≤ 100 nM
//
molecule: CC(C)c1ccc(C(=O)N[C@@H]2CCCN(c3cnc(C(N)=O)c(Nc4ccccc4)n3)C2)cc1
IC50: 1000 to 10000 nM
//
molecule: Cc1cc(Nc2nc(N3CC[C@@H](NC(=O)N(C)C)C3)cnc2C(N)=O)sn1
IC50: 1000 to 10000 nM
//
molecule: Cc1cc(Nc2nc(N3CCC[C@@H](NC(=O)c4ccc(N(C)C)cc4)[C@@H]3CO)cnc2C(N)=O)sn1
IC50: 100 to 1000 nM
//
molecule: CCn1ccc2cc(C(=O)N[C@@H]3CCCN(c4cnc(C(N)=O)c(Nc5cc(C)ns5)n4)C3)ccc21
IC50: ≤ 100 nM
//
molecule: Cc1cc(Nc2nc(N3CCC(CNC(=O)c4ccccc4)CC3)cnc2C(N)=O)sn1
IC50: ≤ 100 nM
//
molecule: Cc1cccc(NC(=O)N[C@@H]2CCCN(c3cnc(C(N)=O)c(Nc4cc(C)ns4)n3)C2)c1
IC50: ≤ 100 nM
//
molecule: CCN1N=CC2C=C(C(=O)N[C@@H]3CCCN(c4cnc(C(N)=O)c(Nc5cc(C)ns5)n4)C3)C=CC21 (stereo partly drawn)
IC50: ≤ 100 nM
//
molecule: CN(C)c1ccc(C(=O)N[C@@H]2CCCN(c3cnc(C(N)=O)c(Nc4ccc(S(C)(=O)=O)cc4)n3)C2)cc1
IC50: ≤ 100 nM
//
molecule: Cc1cc(Nc2cc(N3CCC[C@@H](NC(=O)N4Cc5ccccc5C4)C3)cnc2C(N)=O)sn1
IC50: ≤ 100 nM
//
molecule: C=CC(=O)N[C@@H]1CCCN(c2cnc(C(N)=O)c(Nc3cccc(-c4ncccn4)c3)n2)C1
IC50: 100 to 1000 nM
//
molecule: Cc1cc(Nc2nc(N3CCC[C@@H](NC(=O)c4ccc(C5CC5)cc4)C3)cnc2C(N)=O)sn1
IC50: ≤ 100 nM
//
molecule: Cc1cc(Nc2nc(N3CCC[C@@H](NC(=O)c4ccccc4)C3)cnc2C(N)=O)sn1
IC50: ≤ 100 nM
//
molecule: C=CC(=O)N[C@H]1CCCN(c2cnc(C(N)=O)c(Nc3cc(C)ns3)n2)C1
IC50: ≤ 100 nM
//
molecule: Cc1cc(Nc2nc(N3CCC[C@@H](NC(=O)c4ccc(C5CC5)cc4F)[C@H]3C)cnc2C(N)=O)sn1
IC50: ≤ 100 nM
